Provide the recorded IC50 for the entries that follow.
molecular target: Steroidogenic factor 1 (Homo sapiens, UniProt Q13285); test: Counterscreen for inverse agonists of the liver receptor homolog-1 (LRH-1; NR5A2): Luminescence-based cell-based high throughput dose response assay to identify inverse agonists of the Steroidogenic Factor 1 Nuclear Receptor (SF1; NR5A1).; type: functional
Sequence (Q13285 whole entry): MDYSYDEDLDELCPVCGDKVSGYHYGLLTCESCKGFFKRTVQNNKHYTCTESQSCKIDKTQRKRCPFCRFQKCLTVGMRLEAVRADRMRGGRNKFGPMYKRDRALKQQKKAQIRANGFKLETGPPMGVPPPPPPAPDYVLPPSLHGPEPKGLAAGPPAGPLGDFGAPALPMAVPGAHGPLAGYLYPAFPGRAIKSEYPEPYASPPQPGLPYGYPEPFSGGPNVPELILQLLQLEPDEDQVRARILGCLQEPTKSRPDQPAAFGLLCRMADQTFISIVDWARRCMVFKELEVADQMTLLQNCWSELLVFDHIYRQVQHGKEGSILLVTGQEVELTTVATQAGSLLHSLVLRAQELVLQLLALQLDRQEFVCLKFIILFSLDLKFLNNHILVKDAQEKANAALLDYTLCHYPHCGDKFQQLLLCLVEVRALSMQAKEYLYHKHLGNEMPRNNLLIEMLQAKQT
Active and inactive are the calls of the source.

compound | tested-on | IC50
COc1ccc(CCNC(=O)COC(=O)c2cc(Cl)nc(Cl)c2)cc1 | Steroidogenic factor 1 (Homo sapiens, UniProt Q13285) | 3.23 µM (active)
CC(=O)Nc1cc(-c2ccc(S(C)(=O)=O)cc2)cn2c(-c3ccc(F)cc3)cnc12 | Steroidogenic factor 1 (Homo sapiens, UniProt Q13285) | 3.11 µM (active)
CCOc1ccc(OCCN2C(=O)NC(Cc3c[nH]c4ccccc34)C2=O)cc1 (stereo unspecified) | Steroidogenic factor 1 (Homo sapiens, UniProt Q13285) | 5.29 µM (active)
CC(=O)Nc1ccc(NC(=O)CSc2nnnn2C2CCCCC2)cc1 | Steroidogenic factor 1 (Homo sapiens, UniProt Q13285) | 7.58 µM (active)
COc1ccc(CCn2c(C)cc(C(=O)COC(=O)c3ccc(O)cc3O)c2C)cc1 | Steroidogenic factor 1 (Homo sapiens, UniProt Q13285) | 5.82 µM (active)

// moving on: another record for IC50
Problem: Return reported IC50. Input compound: `Cc1ccc(NC(=O)CSc2nc3nc(O)cc(O)c3s2)c(Br)c1`
Result: 9.35 µM (active)

----------
assay: Luminescence Cell-Based Dose Response HTS to Identify Activators of Luciferase Translation or Activity in H4 […] Cells. [Related pubchem assays: 1829 (Project Summary), 1814 (Primary HTS)]; type: functional
Active and inactive are the calls of the source.
Provide the recorded EC50 for the entries that follow.

Worked cases, EC50 given:
molecule | readout-type | observed-result
Cc1nc(NC(=O)c2cccs2)ccc1Br | EC50 | 13.2 µM (active)
Nc1nc(CSCc2ccccc2)nc(N2CCOCC2)n1 | EC50 | 6.28 µM (active)
CCOc1ccc2nc(N3CCCC(C(=O)NCC4CCCO4)C3)sc2c1 (configuration not stated) | EC50 | 17.1 µM (active)
CC(=O)Nc1ccc(SCc2ncc(-c3ccccc3)o2)cc1 | EC50 | 0.237 µM (active)
CC1CCC(NC(=O)Cn2c(=O)[nH]c3ccsc3c2=O)CC1 (configuration not stated) | EC50 | 29.3 µM (active)

Could you report EC50 for every entry in the following list?
1. Cc1ccccc1C(=O)ON=C(N)c1cccc([N+](=O)[O-])c1
2. COc1ccc(OCc2cc(C(=O)N(C)Cc3cc(C)no3)no2)c(Cl)c1

Result:
1. 17 µM (active)
2. 65.1 µM (active)

----------
Provide the recorded IC50 for the entries that follow.
molecular target: DNA dC->dU-editing enzyme APOBEC-3G (Homo sapiens); type: functional;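 note: Dose-response counterscreen measuring inhibition of APOBEC3G DNA deaminase activity, run while confirming APOBEC3A inhibitors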
Sequence (Q9HC16 whole entry): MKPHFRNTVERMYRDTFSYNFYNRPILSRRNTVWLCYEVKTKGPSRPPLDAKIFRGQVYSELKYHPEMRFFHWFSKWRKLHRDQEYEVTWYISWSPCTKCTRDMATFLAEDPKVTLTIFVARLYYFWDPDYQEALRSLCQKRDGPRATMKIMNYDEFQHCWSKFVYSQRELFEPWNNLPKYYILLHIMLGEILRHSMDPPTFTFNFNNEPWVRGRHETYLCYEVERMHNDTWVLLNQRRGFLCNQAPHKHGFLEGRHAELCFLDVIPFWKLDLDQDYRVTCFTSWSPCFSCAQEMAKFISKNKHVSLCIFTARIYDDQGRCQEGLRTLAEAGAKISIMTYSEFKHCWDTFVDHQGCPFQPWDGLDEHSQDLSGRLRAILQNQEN
Calls of active or inactive are those of the source.

line-notation | observed-result
C[N+](C)(C)CCCCCC(=O)C=NO | 12.6 µM (active)

Could you report IC50 for every entry in the following list?
1. CN(C)CCCNc1c2ccccc2nc2ccccc12
2. CCCC[n+]1c(C)sc2cc(OC)ccc21
3. CCCCCn1ccc(=N)cc1

Result:
["58 µM (active)", "> 100 µM (inactive)", "1.92 µM (active)"]

----------
Provide the recorded IC50 for the entries that follow.
target: 72 kDa type IV collagenase (Homo sapiens, UniProt P08253); assay: Dose Response validation of uHTS RPN11 inhibitor hits using a MMP-2 Fluorescence assay.; assay type: functional
Sequence (P08253 whole entry): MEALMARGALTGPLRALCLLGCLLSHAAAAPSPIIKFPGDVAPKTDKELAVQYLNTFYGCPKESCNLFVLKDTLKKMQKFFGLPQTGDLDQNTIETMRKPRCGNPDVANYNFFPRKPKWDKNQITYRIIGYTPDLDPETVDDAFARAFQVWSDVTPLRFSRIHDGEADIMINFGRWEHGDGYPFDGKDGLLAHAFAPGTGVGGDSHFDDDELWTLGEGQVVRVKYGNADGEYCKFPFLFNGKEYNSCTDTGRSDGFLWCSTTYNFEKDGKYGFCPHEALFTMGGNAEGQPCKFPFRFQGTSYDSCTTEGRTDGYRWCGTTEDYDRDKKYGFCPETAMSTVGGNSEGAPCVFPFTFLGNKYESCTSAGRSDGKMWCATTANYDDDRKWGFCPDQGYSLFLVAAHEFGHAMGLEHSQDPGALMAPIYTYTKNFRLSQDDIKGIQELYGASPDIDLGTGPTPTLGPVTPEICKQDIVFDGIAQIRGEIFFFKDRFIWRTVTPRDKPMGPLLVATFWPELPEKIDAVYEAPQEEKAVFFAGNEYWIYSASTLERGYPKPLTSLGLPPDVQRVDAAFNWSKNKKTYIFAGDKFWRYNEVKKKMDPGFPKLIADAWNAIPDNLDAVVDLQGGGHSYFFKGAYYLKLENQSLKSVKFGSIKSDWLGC
The source made the active and inactive calls.

Worked cases, IC50 given:
molecule | IC50
CCCN1C(=O)/C(=C/c2c(NCCCOC(C)C)nc3c(C)cccn3c2=O)SC1=S | > 100 µM (inactive)
CCCCCCCCCCCC1NC(N)=NC(CCCO)=C1C(=O)OC (centres undefined) | 85.8 µM (active)
COc1ccc(/C=C2\SC(=S)N(CCCC(=O)Nc3cccc(C(=O)O)c3)C2=O)cc1OC | > 100 µM (inactive)

// moving on: another record for IC50
Problem: Return reported IC50. Input molecule: `CCN(CC)c1ccc(/C=C2\C(=O)N(c3nnc(C)c(O)n3)N=C2C)cc1`
Result: 96 µM (active)

----------
target: Histone-lysine N-methyltransferase NSD2 (Homo sapiens, UniProt O96028); assay type: biochemical
Sequence (O96028 whole entry): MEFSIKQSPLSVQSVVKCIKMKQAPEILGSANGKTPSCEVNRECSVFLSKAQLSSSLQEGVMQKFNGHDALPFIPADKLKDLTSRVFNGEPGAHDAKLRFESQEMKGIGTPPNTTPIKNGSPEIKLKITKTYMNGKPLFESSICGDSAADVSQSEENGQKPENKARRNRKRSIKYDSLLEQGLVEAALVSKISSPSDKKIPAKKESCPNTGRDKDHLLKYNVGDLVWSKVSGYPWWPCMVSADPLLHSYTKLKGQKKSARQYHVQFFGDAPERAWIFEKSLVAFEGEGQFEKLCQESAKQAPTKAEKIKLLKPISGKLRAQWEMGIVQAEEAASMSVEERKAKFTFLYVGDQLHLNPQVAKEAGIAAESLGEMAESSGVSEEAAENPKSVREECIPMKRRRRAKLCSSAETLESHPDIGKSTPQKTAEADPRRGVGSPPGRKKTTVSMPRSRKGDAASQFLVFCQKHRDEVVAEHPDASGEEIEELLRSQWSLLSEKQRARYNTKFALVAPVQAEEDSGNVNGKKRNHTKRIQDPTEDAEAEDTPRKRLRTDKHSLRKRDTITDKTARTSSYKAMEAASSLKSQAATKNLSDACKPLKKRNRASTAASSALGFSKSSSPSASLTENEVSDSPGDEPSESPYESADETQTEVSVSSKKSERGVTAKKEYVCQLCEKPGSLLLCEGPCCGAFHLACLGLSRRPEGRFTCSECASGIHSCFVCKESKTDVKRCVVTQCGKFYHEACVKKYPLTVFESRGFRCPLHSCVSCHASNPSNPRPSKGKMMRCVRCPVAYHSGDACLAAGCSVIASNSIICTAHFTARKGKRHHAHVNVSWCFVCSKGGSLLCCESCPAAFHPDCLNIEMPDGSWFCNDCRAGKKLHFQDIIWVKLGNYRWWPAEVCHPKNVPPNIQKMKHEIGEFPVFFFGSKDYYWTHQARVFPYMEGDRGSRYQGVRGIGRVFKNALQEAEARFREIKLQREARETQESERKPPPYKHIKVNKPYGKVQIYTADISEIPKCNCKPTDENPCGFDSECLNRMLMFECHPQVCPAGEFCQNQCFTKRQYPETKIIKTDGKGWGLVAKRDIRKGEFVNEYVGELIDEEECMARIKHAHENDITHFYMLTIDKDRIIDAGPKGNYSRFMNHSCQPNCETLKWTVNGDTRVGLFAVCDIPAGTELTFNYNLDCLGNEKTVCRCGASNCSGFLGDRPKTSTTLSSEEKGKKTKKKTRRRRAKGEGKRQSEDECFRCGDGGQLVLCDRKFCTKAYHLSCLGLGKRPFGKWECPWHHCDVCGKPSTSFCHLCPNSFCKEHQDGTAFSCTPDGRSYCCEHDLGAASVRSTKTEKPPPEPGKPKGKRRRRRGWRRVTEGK
Active and inactive are the calls of the source.
Provide the recorded AC50 for the entries that follow.

line-notation | AC50
CC(=O)N(/N=C1\Sc2ccccc2C1=O)c1ccccc1C | 0.548 µM (active)
N/C(=N\N=C/c1ccc(-c2ccc(O)c(C(=O)O)c2)o1)N[N+](=O)[O-] | 7.57 µM (active)
CCCCCSc1cc(OC)c(CCNC)cc1OC | 17.5 µM (active)
N#C/C(=C/c1ccc(O)c(O)c1)c1nc2ccccc2[nH]1 | 2.05 µM (active)

// moving on: another record for AC50
Problem: Return reported AC50. Input compound: `O=C(O)Cc1ccc(-n2cccc2)cc1`
Result: 11.9 µM (active)

----------
molecular target: Leucine aminopeptidase (Plasmodium falciparum 3D7, UniProt Q8IL11); assay: P. falciparum M17LAP inhibitors, primary screen, biochemical, fluorogenic H-Leu-NHMec substrate, 1536-well (AID 1619); format: functional
Sequence (Q8IL11 whole entry): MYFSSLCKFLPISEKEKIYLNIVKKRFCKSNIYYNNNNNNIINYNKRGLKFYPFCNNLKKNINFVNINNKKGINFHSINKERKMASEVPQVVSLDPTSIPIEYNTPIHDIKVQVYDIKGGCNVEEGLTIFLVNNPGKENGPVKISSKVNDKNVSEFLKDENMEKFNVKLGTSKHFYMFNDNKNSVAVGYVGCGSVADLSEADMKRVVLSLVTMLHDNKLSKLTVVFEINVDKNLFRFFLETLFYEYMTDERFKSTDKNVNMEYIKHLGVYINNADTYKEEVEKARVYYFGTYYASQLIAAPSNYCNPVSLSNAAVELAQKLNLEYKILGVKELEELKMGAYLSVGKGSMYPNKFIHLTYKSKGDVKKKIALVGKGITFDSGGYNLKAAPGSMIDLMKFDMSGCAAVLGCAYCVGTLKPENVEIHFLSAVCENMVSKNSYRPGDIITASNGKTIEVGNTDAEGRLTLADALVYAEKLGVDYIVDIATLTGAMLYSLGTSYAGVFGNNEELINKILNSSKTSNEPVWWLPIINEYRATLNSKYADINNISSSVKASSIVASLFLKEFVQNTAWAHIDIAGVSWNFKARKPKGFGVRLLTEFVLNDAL
Calls of active or inactive are those of the source.
readout-type: IC50

molecule | IC50
O=C(NC(=S)NNS(=O)(=O)c1ccccc1)c1ccccc1[N+](=O)[O-] | 29.9 µM (active)
O=C(Cn1nnc2ccccc2c1=O)Nc1ccc2c(c1)CCC2 | 1.51 µM (active)

Could you report IC50 for every entry in the following list?
1. CCOc1ccc(NC(=O)CSc2nnnn2CC(=O)O)cc1
2. COc1cccc(Nc2ncnc3[nH]cnc23)c1
3. CCc1cc2ccc(C)cc2nc1SCC(=O)Nc1cc(OC)c(OC)cc1C(=O)O
4. CCOc1ccc(N2C(=O)CC(Sc3n[nH]c(-c4ccccc4)n3)C2=O)cc1 (centres undefined)
5. Cc1cc(C(=O)COC(=O)c2ccc[nH]c2=O)c(C)n1C1CC1
6. COC(=O)c1c(NC(=O)C2CC=CCC2C(=O)O)sc(C)c1C (centres undefined)
7. CCOc1cc(/C=C(/C#N)c2nc3ccccc3[nH]2)ccc1OCc1ccc(C(=O)O)o1

Result:
1: 6.69 µM (active); 2: 95.1 µM (active); 3: < 1 µM (active); 4: 11.1 µM (active); 5: 13.3 µM (active); 6: 4.32 µM (active); 7: 9.14 µM (active)

----------
Provide the recorded IC50 for the entries that follow.
target: Sentrin-specific protease 7 (Homo sapiens, UniProt Q9BQF6); assay type: functional
Sequence (Q9BQF6 whole entry): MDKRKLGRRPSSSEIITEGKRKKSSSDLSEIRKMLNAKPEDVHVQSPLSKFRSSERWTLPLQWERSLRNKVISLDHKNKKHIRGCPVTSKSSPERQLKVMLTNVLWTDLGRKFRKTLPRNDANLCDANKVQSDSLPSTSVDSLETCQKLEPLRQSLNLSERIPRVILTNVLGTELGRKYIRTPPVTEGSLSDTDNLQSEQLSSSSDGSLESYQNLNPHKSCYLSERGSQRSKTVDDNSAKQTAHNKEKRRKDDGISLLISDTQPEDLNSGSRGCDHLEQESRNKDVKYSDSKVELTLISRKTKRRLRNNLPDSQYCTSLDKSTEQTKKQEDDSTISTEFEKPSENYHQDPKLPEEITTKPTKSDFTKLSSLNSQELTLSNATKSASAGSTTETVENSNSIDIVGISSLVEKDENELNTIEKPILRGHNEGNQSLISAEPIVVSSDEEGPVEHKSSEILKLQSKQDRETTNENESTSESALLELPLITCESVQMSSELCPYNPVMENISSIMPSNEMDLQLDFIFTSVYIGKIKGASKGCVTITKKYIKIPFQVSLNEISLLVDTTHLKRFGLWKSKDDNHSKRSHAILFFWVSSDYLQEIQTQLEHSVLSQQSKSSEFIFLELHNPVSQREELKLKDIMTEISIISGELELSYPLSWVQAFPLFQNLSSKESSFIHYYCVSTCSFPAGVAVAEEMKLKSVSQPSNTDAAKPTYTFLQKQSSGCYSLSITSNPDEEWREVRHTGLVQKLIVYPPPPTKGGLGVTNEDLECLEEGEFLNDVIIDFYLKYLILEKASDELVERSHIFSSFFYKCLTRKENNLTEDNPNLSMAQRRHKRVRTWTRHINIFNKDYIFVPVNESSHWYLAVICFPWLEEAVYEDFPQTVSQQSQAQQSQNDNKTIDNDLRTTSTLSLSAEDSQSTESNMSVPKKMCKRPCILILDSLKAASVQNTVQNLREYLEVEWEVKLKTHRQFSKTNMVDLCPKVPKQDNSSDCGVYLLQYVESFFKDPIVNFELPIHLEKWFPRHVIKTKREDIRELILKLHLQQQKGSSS
Active and inactive are the calls of the source.

Worked cases, IC50 given:
line-notation | IC50
CCN(CC)c1ccc(Nc2nc(-c3cccnc3)cs2)cc1 | 4.32 µM (active)
COc1cc(OC)cc(C(=O)Nc2ccc(Nc3ccccc3)cc2)c1 | 5.27 µM (active)
CC(=O)N(/N=C1\Sc2ccccc2C1=O)c1ccccc1C | 3.79 µM (active)
CCOc1ccc2nc(NC(=O)Cc3cccs3)sc2c1 | 7.38 µM (active)
O=C1/C(=C/c2cccc(F)c2)Oc2cc(O)ccc21 | 6.09 µM (active)

// moving on: another record for IC50
Problem: Enter measured IC50, system Sentrin-specific protease 7 (Homo sapiens, UniProt Q9BQF6), for the compound shown: `Cc1nc(Nc2ccc(C(=O)O)cc2)sc1-c1ccccc1`;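 note: Luminescence-based dose-response confirmation of ultra-high-throughput screening hits, measuring inhibition of SENP7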
Result: 0.797 µM (active)

----------
Provide the recorded IC50 for the entries that follow.
target: Large T antigen (Simian virus 40, UniProt P03070); format: functional, Betapolyomavirus macacae;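 note: Confirmatory-stage PubChem screen for compounds that inhibit SV40 T antigen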
The source made the active and inactive calls.

Could you report IC50 for every entry in the following list?
1. COc1ccc(NCC(O)Cn2cnc3c2c(=O)n(C)c(=O)n3C)cc1 (stereo not given)
2. COc1cc(-c2csc(C)n2)ccc1O
3. CN(C)c1ccc(NS(=O)(=O)c2cc3c4c(c2)CC(=O)N4CCC3)cc1
4. N/C(=N\N=C/c1ccc(-c2ccc(O)c(C(=O)O)c2)o1)N[N+](=O)[O-]
5. CCCN1CCc2cc(O)cc3c2[C@H]1Cc1ccc(O)c(O)c1-3

Result:
1. 17.7 µM (active)
2. 4.9 µM (active)
3. 69.8 µM (active)
4. 25.4 µM (active)
5. 24 µM (active)

----------
Molecular target: UniProtKB Q9GZR1
Sequence (Q9GZR1 whole entry): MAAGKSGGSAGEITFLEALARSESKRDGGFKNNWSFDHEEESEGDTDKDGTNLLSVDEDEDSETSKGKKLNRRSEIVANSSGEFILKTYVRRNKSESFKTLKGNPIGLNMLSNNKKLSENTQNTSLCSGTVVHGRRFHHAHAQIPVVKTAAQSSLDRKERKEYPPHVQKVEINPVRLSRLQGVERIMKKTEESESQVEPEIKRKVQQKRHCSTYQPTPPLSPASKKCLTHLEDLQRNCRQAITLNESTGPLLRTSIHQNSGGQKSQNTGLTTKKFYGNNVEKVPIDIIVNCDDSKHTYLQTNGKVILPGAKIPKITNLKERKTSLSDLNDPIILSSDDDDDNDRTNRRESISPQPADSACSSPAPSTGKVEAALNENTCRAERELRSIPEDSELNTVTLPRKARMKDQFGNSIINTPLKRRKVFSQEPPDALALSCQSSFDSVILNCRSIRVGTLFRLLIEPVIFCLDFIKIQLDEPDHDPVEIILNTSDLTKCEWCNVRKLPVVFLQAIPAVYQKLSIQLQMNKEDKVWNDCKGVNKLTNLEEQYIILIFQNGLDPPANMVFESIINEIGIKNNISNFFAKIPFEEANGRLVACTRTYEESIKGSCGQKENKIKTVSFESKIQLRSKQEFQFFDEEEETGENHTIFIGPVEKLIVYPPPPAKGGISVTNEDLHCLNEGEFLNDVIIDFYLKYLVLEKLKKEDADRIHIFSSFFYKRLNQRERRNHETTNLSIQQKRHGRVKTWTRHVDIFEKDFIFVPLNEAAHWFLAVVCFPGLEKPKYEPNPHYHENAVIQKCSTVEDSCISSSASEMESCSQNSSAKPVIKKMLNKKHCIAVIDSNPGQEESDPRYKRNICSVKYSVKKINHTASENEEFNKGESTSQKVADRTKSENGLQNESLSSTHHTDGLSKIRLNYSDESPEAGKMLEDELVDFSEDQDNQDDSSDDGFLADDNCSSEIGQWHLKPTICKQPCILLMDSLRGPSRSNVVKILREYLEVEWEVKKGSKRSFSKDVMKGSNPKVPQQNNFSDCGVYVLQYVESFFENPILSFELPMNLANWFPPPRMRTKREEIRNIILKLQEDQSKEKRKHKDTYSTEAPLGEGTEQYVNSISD
Test: SAR Analysis of small molecule inhibitors of Sentrin-specific protease 6 (SENP6) using a Luminescent assay. [Related pubchem assays (depositor defined):AID2582, AID2599]
Assay type: functional
The source made the active and inactive calls.
Permitted responses: 1 (active), -1 (inactive)

Illustrative cases are given below, each with its answer.
line-notation | tested-on | discrete-label
Cc1csc(C(=O)Nc2nc3ccccc3s2)c1 | UniProtKB Q9GZR1 | 1
O=C(Nc1nc2ccc(Cl)cc2s1)c1ccc(C(F)(F)F)cc1 | UniProtKB Q9GZR1 | -1

Problem: Look up the recorded call for `CC(=O)Oc1ccccc1/C=C(\C)c1noc(-c2ccccc2O)n1` in this test.
Result: -1

Problem: Look up the recorded call for `O=C(Nc1ccc(F)c(F)c1)c1ccc2c(c1)OCO2` in this test.
Result: 1

Problem: Look up the recorded call for `N#Cc1c(NC(=O)c2ccc(Cn3cc(Br)cn3)o2)sc2c1CCCCC2` in this test.
Result: -1

Problem: Look up the recorded call for `O=C1/C(=C/c2cccc(F)c2)Oc2cc(O)ccc21` in this test.
Result: 1
